Biological target: IRAK4 (Homo sapiens (Human), UniProt Q9NWZ3)
Sequence (Q9NWZ3 whole entry): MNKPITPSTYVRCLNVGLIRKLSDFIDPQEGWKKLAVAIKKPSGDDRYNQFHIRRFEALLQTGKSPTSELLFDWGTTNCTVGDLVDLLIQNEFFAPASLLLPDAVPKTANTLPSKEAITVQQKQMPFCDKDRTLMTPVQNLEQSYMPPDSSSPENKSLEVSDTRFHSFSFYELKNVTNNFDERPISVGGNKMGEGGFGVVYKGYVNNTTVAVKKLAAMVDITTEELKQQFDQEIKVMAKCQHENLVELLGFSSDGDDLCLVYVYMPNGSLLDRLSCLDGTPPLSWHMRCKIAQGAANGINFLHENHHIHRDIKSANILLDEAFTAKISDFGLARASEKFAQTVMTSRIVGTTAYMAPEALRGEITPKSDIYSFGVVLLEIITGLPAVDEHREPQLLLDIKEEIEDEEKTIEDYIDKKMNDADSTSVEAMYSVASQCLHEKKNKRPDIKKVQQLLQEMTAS
Structures can show the parent of a compound that is named as a salt.
# strict inequality: IC50 < 20 nM yields y, everything else yields n

Consider the following illustrative entries.
Compound	Qualitative Label
Cn1cc(NC(=O)c2ccc3ccc(N4CCC[C@@H](N)C4)nn23)c(C(F)(F)F)n1 [Example 12, trifluoroacetate]	y
Cn1cc(NC(=O)c2ccc3ccc(N4C[C@@H]5CC[C@H]4CN5)nn23)c(C#N)n1 (single isomer, unassigned) [Example 43, trifluoroacetate]	n

Here is another compound to look at.
Decide: IC50 of Cn1cc(NC(=O)c2ccc3ccc(N4C5CCC4CNC5)nn23)c(C(F)(F)F)n1 [Example 120, trifluoroacetate] strictly below 20 nM?
y
